B1: DYRK1B (parent)
chain: ARKYFERLPGGGWTLRRTKELRKD

variants of: B1; experiment: protein stability index of a GFP-peptide fusion (GPS, HEK-293T) (PSI 1-6); higher = more stable; settings: c terminus: a fixed tail appended;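 note: lentivirally expressed fusions sorted by FACS into six bins by GFP to DsRed ratio, PSI derived from sequencing read proportions per bin multiplied by bin number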
parameter: protein stability index

In [3]: df
Out[3]:
                     sequence_code  test_result
0   ARKYFERLTGGGWTLRRTKELRKD [P9T]         3.02
1  ARKYFERLPGGEWTLRRTKELRKD [G12E]         3.02
2   ARKYFERLVGGGWTLRRTKELRKD [P9V]         2.96
